- COMPOUND: "O=C(CN1C(=O)C(=O)c2ccccc21)Nc1ccccc1[N+](=O)[O-] [11f]"
  melting point: "186 to 188 °C"
- COMPOUND: "O=C(CN1C(=O)C(=O)c2ccccc21)Nc1ccc(Cl)cc1 [11d]"
  melting point: "177 to 179 °C"
- COMPOUND: "O=C(CN1C(=O)C(=O)c2ccccc21)Nc1ccc(Br)cc1 [11e]"
  melting point: "179 to 181 °C"
- COMPOUND: "O=C(CN1C(=O)C(=O)c2ccccc21)Nc1ccc(OC(F)(F)F)cc1 [11i]"
  melting point: "209 to 211 °C"
- COMPOUND: "O=C(CN1C(=O)C(=O)c2cc(S(=O)(=O)N3CCC[C@H]3COc3ccccc3)ccc21)Nc1ccc(OC(F)(F)F)cc1 [20i]"
  melting point: "218 to 220 °C"
- COMPOUND: "O=C(CN1C(=O)C(=O)c2cc(S(=O)(=O)N3CCC[C@H]3COc3ccccc3)ccc21)Nc1ccc(Br)cc1 [20e]"
  melting point: "196 to 198 °C"
- COMPOUND: "COc1ccc(NC(=O)CN2C(=O)C(=O)c3ccccc32)cc1 [11k]"
  melting point: "201 to 203 °C"
- COMPOUND: "C#CCN1C(=O)C(=O)c2ccccc21 [11a, 1-(Prop-2-yn-1-yl)indoline-2,3-dione]"
  melting point: "158 to 160 °C"

Sourced from paper PMC7470124
